# Tested on: SVMP activity of Echis romani venom
# Condition Label: read-out: Inhibition of SVMP enzymatic activity EC50 ERO; E. romani venom; mean of n ≥ 3, range in brackets; listed as 23 (DC-174)
Metric: EC50 (nM)

[[record]]
compound = "COc1ccc(S(=O)(=O)N2CCN(S(=O)(=O)C3CC3)C[C@@H]2C(=O)NO)cc1 [compound 23]"
metric = "EC50"
unit_string = "nM"
value_observed = 4.7


----------
Listed compounds paired with reported logD
# Protocol Text: physchem
# Condition Label: organic solvent / aqueous solvent at pH 7.4, pH 7.4
Metric: logD

[[record]]
smiles_representation = "COCCN1CCN(S(=O)(=O)c2ccc(Oc3ccc(OC(F)(F)F)cc3)cc2)[C@@H](C(=O)NO)C1"
value_observed = 2.9

[[record]]
smiles_representation = "COCCN1CCN(S(=O)(=O)c2ccc(-c3ccc(Cl)cc3)cc2)[C@@H](C(=O)NO)C1"
value_observed = 2.5

[[record]]
smiles_representation = "COCCN1CCN(S(=O)(=O)c2ccc(Oc3ccc(OC)cc3)cc2)[C@@H](C(=O)NO)C1"
value_observed = 1.9

[[record]]
smiles_representation = "COCCN1CCN(S(=O)(=O)c2ccc(Oc3ccc(Cl)cc3)cc2)[C@@H](C(=O)NO)C1"
value_observed = 2.4

[[record]]
smiles_representation = "COCCN1CCN(S(=O)(=O)c2ccc(-c3ccc(F)cc3)cc2)[C@@H](C(=O)NO)C1"
value_observed = 1.9


Where do the numbers come from? From paper PMC13126677.
